Assay: inhibitors of hydroxyurea-induced Chk1 phosphorylation, primary screen, imaging, HeLa, phospho-Chk1 antibody, percent positive cells (AID 1186)
Conditions: hydroxyurea-induced phospho-Chk1 immunofluorescence imaging, higher = more signal
The source made the active and inactive calls. No rule for the calls is given here.
result-type: z-score

Record excerpt, results attached:
| molecule-smiles | result-type | val |
| --- | --- | --- |
| COc1ccc(C#Cc2ccc3c(c2)[C@]2(C(=O)N3)[C@H](c3ccc(O)cc3)N3[C@H](c4ccccc4)[C@H](c4ccccc4)OC(=O)[C@H]3[C@@H]2C(=O)O)cc1 | z-score | -0.368 (inactive) |
| C[C@@H]1ON(c2ccc(C(=O)OC(C)(C)C)cc2)[C@H](c2ccc(O)cc2)[C@H]1C(=O)N1C(=O)OC[C@H]1Cc1ccccc1 | z-score | -0.0209 (inactive) |
| [N-]=[N+]=NCc1ccccc1C[C@@]1(C(=O)N2CCCCC2)N=C(c2ccc(OCCCO)cc2)O[C@@H]1c1ccccc1 | z-score | -0.219 (inactive) |

Now examine the next entry.
*Q* Name the reported z-score value associated with the compound O=C(NCC(F)(F)F)[C@@H]1c2ccccc2C(=O)N(Cc2cc(F)cc(C(F)(F)F)c2)[C@H]1c1ccc(CO)cc1
*A* -0.0626 (inactive)

----------
Test system: Plasmodium falciparum Sir2 (PF13_0152, Sir2A)
Test: pfSir2 binders on small-molecule microarrays, primary screen, biochemical, small-molecule microarray, 635 nm fluorescence (AID 1098);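 also: score merges spot fluorescence intensity with its signal-to-noise ratio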
Conditions: small-molecule microarray binding, fluorescence 635 nm; higher = more signal
Tick class 1 if composite z-score is 0.4 or greater. Tick class 0 if composite z-score is less than 0.4.

Past entries and their recorded results:
| molecule | label |
| --- | --- |
| COCCOC(=O)N1C(=O)[C@@]2(c3cc(C#CC4=CCCCC4)ccc31)[C@H](c1ccccc1OCCO)N1[C@H](c3ccccc3)[C@H](c3ccccc3)OC(=O)[C@H]1[C@@H]2C(=O)N1CCCCCCC1 | class 1 |
| CCCCC=C[C@@H](NC(=O)c1ccc(-c2ccccc2)cc1)c1ccccc1 | class 0 |
| O=C1OCC=C[C@H]2OC34C=CCN(c5ccc(Cl)cc5)C(=O)[C@H]3N(CCO)C(=O)[C@@H]4[C@@H]12 (some centres undefined) | class 0 |

*Q* Please tell me: is the molecule CCC(CC)C(O)C1C=CC2C(=O)N(c3ccccc3)C(=O)C2N1Nc1ccc(C(C)C)cc1 (centres undefined) at or over 0.4 in terms of composite z-score?
*A* class 1

*Q* Check this molecule for composite z-score at or above 0.4: COC(=O)Cn1c(C(=O)N(C)C)cc2c1C[C@H]1CN(C(=O)c3ccccc3)[C@@](Cc3ccc(F)cc3)(C(=O)OC)[C@@H]21
*A* class 1

*Q* Given CCOC(=O)[C@H]1[C@@H]2C(=O)N3CCC[C@H]3[C@H](O[Si](C(C)C)(C(C)C)C(C)C)[C@H]2C=C2CCN(S(=O)(=O)c3ccc(C)cc3)C[C@H]21 , state whether its composite z-score is at least 0.4.
*A* class 1

*Q* Does the reported composite z-score for C=CCC(OC(C)=O)[C@@H]1[C@@H](N(Cc2cccc3ccccc23)C(=O)c2cccc3ccccc23)c2cc(OCCCO)ccc2N1C(=O)c1ccc(-c2ccccc2)cc1 (some centres undefined) fall at or above the 0.4 mark?
*A* class 0

*Q* Would you say O=c1n(-c2ccccc2)c(=O)n2n1CC(COc1ccccc1)=C([C@H](O)CCc1ccccc1)[C@@H]2CO shows composite z-score at minimum 0.4?
*A* class 0

*Q* composite z-score >= 0.4 for N#Cc1ccc(NN2C(C(O)c3ccc(F)cc3)C=CC3C(=O)N(c4ccccc4)C(=O)C32)cc1 (centres undefined) ?
*A* class 1

----------
Assay: MM1S myeloma cell viability, profiling panel, resazurin fluorescence, basal, 24 h, PK04 Diversity Set (AID 1174);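 also: MM1S multiple myeloma cell line; test concentration not given here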
Settings: called active from +8 up or from −8 down
Activity calls are given as the source filed them.
Classes to choose from: active, inactive

*Q* Hi team, can someone confirm the assay call for Cc1ccc(S[C@]2(C(=O)O)CC(=O)N(C3Cc4ccccc4C3)[C@@H]2c2ccc(CO)cc2)cc1 ?
*A* inactive

*Q* What did the test return for O=C1O[C@H](c2ccccc2)[C@H](c2ccccc2)N2[C@H]1[C@@H](C(=O)Nc1nc3ccccc3s1)[C@]1(C(=O)Nc3ccc(C#CCCO)cc31)[C@H]2c1ccc(O)cc1 ?
*A* inactive

*Q* What call does the record list for COCCOC(=O)N1C(=O)[C@@]2(c3cc(C#CC4=CCCCC4)ccc31)[C@H](c1ccccc1OCCO)N1[C@H](c3ccccc3)[C@H](c3ccccc3)OC(=O)[C@H]1[C@@H]2C(=O)N1CCCCCCC1 ?
*A* inactive

*Q* Record lookup: outcome of this test for Cc1cc(C)c(C(O)C2C=CC3C(=O)NC(=O)C3N2Nc2ccc(Cl)cc2Cl)c(C)c1 (centres undefined) ?
*A* inactive

----------
Assay: binders from COS7 lysate, DM2A8 probe, primary screen, torsin A project, cell lysate, small-molecule microarray, fluorescence 635/667 (AID 1065)
Details: higher = more signal, COS7 lysate expressing mutant human TOR1A
result-type: composite z-score

Consider the worked cases shown below.
| compound | composite z-score |
| --- | --- |
| CC(=O)NCCCC[C@@H]1NC(=O)[C@@H]2C[C@H](C(=O)NCCCC[N+](C)(C)C)[C@H](c3ccc(O)cc3)N2C1=O | 1.74 |
| COC(=O)[C@@]1(Cc2ccc(F)cc2)[C@H]2c3cc(C(=O)N4CCCC4)n(CCN4CNCC4=O)c3C[C@H]2CN1C(=O)c1ccccc1 | 1.56 |
| CCCC[C@@H](O)C1=C(COc2ccccc2)C[C@H]2C(=O)N(C)C(=O)[C@H]2[C@H]1CO | -0.33 |
| C=CCC(OC(C)=O)[C@@H]1[C@@H](N(Cc2ccc(-c3cccc(C(F)(F)F)c3)o2)C(=O)c2ccc(C)cc2)c2cc(OCCCO)ccc2N1C(=O)c1ccc2ccccc2c1 (stereo not given in full) | 0.462 |

As a next step, examine the compound that follows.
*Q* Given O[C@@H](Cc1ccccc1)[C@@H](/C=C/C1CC1)N(CC#Cc1ccccc1)Cc1cccc(Cl)c1 , state its recorded composite z-score.
*A* -0.393

----------
Assay: small-molecule microarray binders of probe aCHRDL2, primary screen, biochemical, biotinylated probe, 635/667 nm fluorescence (AID 1100)
Conditions: higher = more signal
Reported composite z-score values are given for each entry in this list.
Please respond with just the number, no unit label.

Examples with their reported composite z-score follow.
| molecule | composite z-score |
| --- | --- |
| COC(=O)[C@@]1(Cc2ccc(OC)cc2)[C@H]2c3cc(C(=O)N(C)C)n(Cc4ccc(Cl)c(C(F)(F)F)c4)c3C[C@H]2CN1C(=O)c1ccccc1 | 1.49 |
| C=C(/C(=C/C[C@H](OC(C)=O)c1ccccc1OCCO)c1cc(C(=O)OC)ccc1OC)C(C)C | -0.192 |
| C[N+](C)(C)CCCC[C@@H]1NC(=O)[C@H]2C[C@@H](C(=O)NCCCCCCN)[C@@H](c3ccc(O)cc3)N2C1=O | 0.659 |
| C=CC[C@@]1(C(=O)N2CCOCC2)N=C(c2ccc(OCCCO)cc2)O[C@@H]1c1ccccc1CN=[N+]=[N-] | 1.18 |
| C=CCC(OC(C)=O)[C@@H]1[C@@H](N(Cc2ccc(-c3cccc(C(F)(F)F)c3)o2)C(=O)c2ccc(-c3ccccc3)cc2)c2cc(OCCCO)ccc2N1C(=O)c1ccc2ccccc2n1 (stereo partly drawn) | 0.202 |

*Q* Which measured composite z-score value corresponds to CCCCCCCCCCC(O)C1C=CC2C(=O)N(C)C(=O)C2N1NC(=O)OC(C)(C)C (stereo not drawn) ?
*A* 0.0331

*Q* Give its composite z-score value. Item: CN1C(=O)C2C=CC(C(O)c3ccc(F)cc3)N(Nc3ccccc3)C2C1=O (stereo not drawn)
*A* 0.902

*Q* State the recorded composite z-score for this entry: O=C1O[C@H](c2ccccc2)[C@H](c2ccccc2)N2[C@H]1[C@@H](C(=O)NC[C@H](O)c1ccccc1)[C@]1(C(=O)Nc3ccc(C#CCCO)cc31)[C@H]2c1ccc(OCCO)cc1
*A* 0.0751

*Q* Quick one: composite z-score of [N-]=[N+]=NCc1ccccc1[C@@H]1OC(c2ccc(OCCCO)cc2)=N[C@]1(CCS(=O)(=O)c1ccccc1)C(=O)NCC(O)CO (stereo partly drawn) ?
*A* 1.03

*Q* What value of composite z-score has been reported for the following molecule? COc1ccc([Si](C)(C)[C@@H]2[C@@H](CCO)O[C@]3(C(=O)N(Cc4ccc(N5CCCCC5=O)cc4)c4ccccc43)[C@H]2C)cc1
*A* -0.756

*Q* Item COC(=O)c1c(CC[C@@H](CO)NC(=O)N[C@H](Cn2cc(C3(O)CCCCC3)nn2)C(C)C)oc(C(C)=O)c1C(=O)OC has what recorded composite z-score?
*A* -0.446

*Q* I would be grateful if you could share the reported composite z-score for C=C(/C(=C/C[C@H](OC(C)=O)c1cccc(OCCO)c1)c1cnc2ccccc2c1)C(C)C .
*A* -0.105

*Q* Item CC(=O)NCCCC[C@@H]1NC(=O)[C@H]2C[C@@H](C(=O)NCCCC[N+](C)(C)C)[C@@H](c3cccc(OCCO)c3)N2C1=O has what recorded composite z-score?
*A* -0.201

*Q* Fill in the blank: the reported composite z-score of CC(C)(C)N1CC=CC23O[C@@H]4C=CCOC(=O)[C@@H]4[C@H]2C(=O)N(CCCCCCO)[C@@H]3C1=O (stereo partly drawn) is ____.
*A* 0.65
